All figures here come from PubChem BioAssay (NCI).

# System: HCC-2998 colon
# method-summary: NCI-60 one-dose screen, 48 h (100 = growth as untreated, 0 = no growth, -100 = all killed)
# test-context: 10 µM unless noted
The panel holds about 83,000 compounds, 20% with a hit somewhere; the sample as a whole holds those more often.
growth values for the molecules below.
State the answer as a number, implicitly in %.

molecule | growth (%)
C#CCn1c(C)cc(C)c(C#N)c1=O | 105

Challenge: Please give the documented growth of `COC(=O)[C@]12CC[C@@H](C)[C@H](C)[C@@H]1C1=CC[C@@H]3[C@@]4(C)C(c5ncon5)=C[C@@](C)(CO)C4=CC[C@@]3(C)[C@]1(C)CC2`
Response given: -83.3

Challenge: For the molecule `OCC(CO)(CCl)CCl` , give its measured growth value.
Response given: 101

Challenge: Report growth, nothing else, for this molecule: `Nc1ccc(Cl)cn1`
Response given: 113

Challenge: Find the measured growth of COc1cc(NC(C)CN(CC(C)C)C(C)C)c2ncccc2c1 (stereo unspecified) and report it.
Response given: 103

Challenge: Respond only with growth recorded for `COc1ccc(-c2nc3c(c(C)nn3-c3ccc(F)cc3)c(=O)[nH]2)cc1`
Response given: 98.4

====

# System: MALME-3M melanoma
# method-summary: NCI-60 one-dose screen, 48 h
# test-context: 10 µM unless noted
About 83,000 compounds went through this panel and 20% of them were active in at least one assay; those are over-represented in the sample as a whole. Activity calls are given as the source filed them. The calls were made as follows: active = growth percent below 10; inactive = the rest.
// one of label 1 for active, label 0 for inactive, no free text

molecule | group
Cc1ccc(/C=C(\C#N)c2cc3ccccc3n2C)cc1 | label 0

Moving on to another molecule below.
Challenge: Short answer needed: outcome of this test for `C/C(=N\Nc1cc(C)c2ccccc2n1)c1ccccn1` ?
Response given: label 1

====

This section presents compounds with their documented growth values.
# Tested on: CAKI-1 renal
# method-summary: NCI-60 one-dose screen, 48 h (100 = growth as untreated, 0 = no growth, -100 = all killed)
# test-context: 10 µM unless noted
About 83,000 compounds went through this panel and 20% of them were active in at least one assay; those are over-represented in the sample as a whole.
Quick reminder: number only, in %, skip the unit.

Known growth results, listed for orientation:
compound | value-observed
CC(=O)O[C@H]1CC[C@@]2(C)C(=CC[C@@H]3[C@@H]2CC[C@]2(C)C(=O)N(O)C(=O)C[C@@H]32)C1 | 64.1
CCCCC(=O)OC1CCCCC1C (stereo unspecified) | 94.9
O=C(NC(Cc1cn(Cc2ccccc2)cn1)C(=O)O)OCC1c2ccccc2-c2ccccc21 (stereo unspecified) | 103

Challenge: Look up CAKI-1 renal data: growth of `O=C1/C(=C\c2ccco2)SC(=S)N1CCc1ccc(O)cc1` , then report it.
Response given: 83.4

Challenge: Quote CAKI-1 renal growth for entry `N#Cc1c(-c2ccc(O)cc2)c2c(N)nn(-c3ccccc3)c2[nH]c1=O` .
Response given: 97.1

Challenge: Give growth; test system CAKI-1 renal; compound `CN(C)c1ccc(N)c2ccccc12`
Response given: 69.4

====

Measured growth values are reported for all entries that follow.
# Tested on: EKVX NSCLC
# method-summary: NCI-60 one-dose screen, 48 h (100 = growth as untreated, 0 = no growth, -100 = all killed)
# test-context: 10 µM unless noted
About 83,000 compounds went through this panel and 20% of them were active in at least one assay; those are over-represented in the sample as a whole.
# number only, unit % dropped from output

Examples with their reported growth follow.
compound | target-of-assay | result-units | growth
O=C1c2ccccc2NC(c2cn(-c3ccccc3)nc2-c2cccs2)N1Cc1ccccc1 (stereo not given) | EKVX NSCLC | % | 72.1
N#CC1c2ccccc2-c2ccccc2N1C(=O)c1ccccc1 (stereo not given) | EKVX NSCLC | % | 29.5
Nc1nc(Br)nc2c1ncn2C1CC(O)C(CO)O1 (stereo not given) | EKVX NSCLC | % | 71
COc1cccc(-c2nn(-c3ccccc3)cc2-c2ccnc(NCCCNS(=O)(=O)c3ccccc3)c2)c1 | EKVX NSCLC | % | 46.5

Challenge: Please indicate growth recorded for `COC(=O)[C@]12CC[C@@H](C(C)=O)[C@@H]1[C@H]1CC[C@@H]3[C@@]4(C)C/C(=C/c5cccnc5)C(=O)C(C)(C)[C@@H]4CC[C@@]3(C)[C@]1(C)CC2`
Response given: 85.8

====

# Tested on: SW-620 colon
# method-summary: NCI-60 one-dose screen, 48 h
# test-context: 10 µM unless noted
# Protocol: Growth inhibition of the SW-620 human tumor cell line is measured as a screen for anti-cancer activity. Cells are grown in 96 well plates and exposed to the test compound for 48 hours. Compounds are tested at a single concentration, which is 10^-5 M for most compounds. The reported endpoint is percent growth (GI% or GIPRCNT), where numbers from 0 - 100% represent growth inhibition, and numbers from -100% - 0 represent cell death. For example, a value of 40 represents 60% growth inhibition. […]
Compounds without any hit were thinned out: in the full panel of roughly 83,000, 20% have a hit. Activity calls are given as the source filed them. Rule for the calls: active = growth percent below 10; inactive = the rest.
Return exactly one item of active, inactive

molecule | target-of-assay | group
Cn1cc(-c2csc(-c3cn(CCCN4CCCCC4)c4ccc(Br)cc34)n2)c2cccnc21 | SW-620 colon | active
COc1ccc(-c2nc(SCC(=O)Nc3ccc(C(C)=O)cc3)[nH]c(=O)c2C#N)cc1 | SW-620 colon | inactive
CCCCC[C@H]1C/C=C2/C(=O)C=C[C@@H]2C/C=C\CCCC(=O)O[C@@H](CCCCC)C/C=C2/C(=O)C=C[C@@H]2C/C=C\CCCC(=O)O1 | SW-620 colon | active
C(=C\c1c[nH]c2ccccc12)/c1ccc2ccccc2n1 | SW-620 colon | inactive

Could you now look at the following molecule, please?
Challenge: GET /call?item= COc1ccc(C2NC(=O)Nc3ccccc32)c(OC)c1 (stereo not given) returns the recorded outcome of this test.
Response given: inactive

====

# Test system: PC-3 prostate
# method-summary: NCI-60 one-dose screen, 48 h
# test-context: 10 µM unless noted
About 83,000 compounds went through this panel and 20% of them were active in at least one assay; those are over-represented in the sample as a whole. Active and inactive are the calls of the source. The calls were made as follows: active = growth percent below 10; inactive = the rest.
Respond using exactly one of the listed classes: yes for active, no for inactive

molecule | group
COc1cc2ncnc(Nc3ccc(Oc4ccnc(C)c4)c(C)c3)c2cc1NC(=O)CC1CCSS1 (stereo unspecified) | yes
CCN1CCN(C(=O)[C@]23CCC(C)(C)C[C@@H]2C2=CC[C@@H]4[C@@]5(C)C/C(=C/c6cccnc6)C(=O)C(C)(C)[C@@H]5CC[C@@]4(C)[C@]2(C)CC3)CC1 | no
CCCC(=O)N1CCCCC1CC (stereo unspecified) | no
Cc1ccc(-c2ccc(/C=C(\C#N)c3nc(-c4ccco4)cs3)o2)cc1 | no
CC[C@H](CC[C@@H](C)[C@H]1CC[C@H]2[C@@H]3/C(=C/c4cccnc4)C(=O)C4=CC(=O)CC[C@]4(C)[C@H]3CC[C@]12C)C(C)C | no
COc1ccc(C(=O)/C=C/c2cc(-c3cc(OC)c(OC)c(OC)c3)n[nH]2)cc1OC | no

Challenge: Call for entry `COc1ccc2nc(-c3c(-c4ccccc4)nc4ncccn34)[nH]c2c1` :
Response given: no

Challenge: Fill in: this test's call for `Cn1cc(-c2csc(-c3c[nH]c4ccccc34)n2)c2cccnc21` is ___
Response given: no

Challenge: Recorded test outcome, item `CC(C)(C)c1cc(-n2c(-c3ccc(Cl)cc3)nc3cc(C(=O)Nc4ccc(Cl)cc4)ccc32)n[nH]1`
Response given: no

====

# Tested on: IGROV1 ovarian
# method-summary: NCI-60 one-dose screen, 48 h (100 = growth as untreated, 0 = no growth, -100 = all killed)
# test-context: 10 µM unless noted
Compounds without any hit were thinned out: in the full panel of roughly 83,000, 20% have a hit.
Hi! Could you tag entries with growth below 90% as y, and those at or above as n? Much appreciated.

compound | target-of-assay | group
Cc1cc(C)n(Cc2cc(C(C)(C)C)cc(C(C)(C)C)c2)c(=O)c1C#N | IGROV1 ovarian | n
COc1ccc2c3c(c4ccccc4cc13)C(=O)N(CCN(C)CCN)C2=O | IGROV1 ovarian | y
COC(=O)[C@]12CC[C@@H](C)[C@H](C)[C@@H]1C1=CC[C@@H]3[C@@]4(C)C[C@@H](O)OC[C@](C)(C=O)C4C(=O)C[C@@]3(C)[C@]1(C)CC2 (stereo partly drawn) | IGROV1 ovarian | y
CN(C)c1ccc(N)c2ccccc12 | IGROV1 ovarian | y
C/C(=N\Nc1cc(C)c2ccccc2n1)c1ccccn1 | IGROV1 ovarian | y
COc1ccc(-c2nc(SCC(=O)Nc3ccc(C(C)=O)cc3)[nH]c(=O)c2C#N)cc1 | IGROV1 ovarian | n
NC1(N)C=CC2=C(C=C1)C1(N)C3=C(C=CC(N)(N)C=C3)N2C2(N)C3=C(C=CC(N)(N)C=C3)N1C1=C2C=CC(N)(N)C=C1 | IGROV1 ovarian | n

Challenge: Threshold test, growth < 90%: `CC1(C)NCCC[C@]2(C)[C@H]3CC[C@@H]4[C@H]5[C@H](C(=O)/C=C/c6ccccn6)CC[C@]5(CO)CC[C@@]4(C)[C@]3(C)CC[C@@H]12`
Response given: y
